test: differential killing of epithelial or mesenchymal cells, primary screen, imaging, PC-3E GFP, TEM4-18 mCherry, co-culture (AID 1345086); conditions: imaging cell counts, at 1 µM, actives lie on both sides, counts scaled to control wells, 1 = unselective;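 note: cells exposed to compound for 72 h before imaging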;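 for red/green cell ratio (normalised): normalised mesenchymal count divided by normalised epithelial count so high means epithelial killing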
Classification by red/green cell ratio (normalised) follows these ranges: lower level: < 0.9; middle level: ≥ 0.9 and < 1; upper level: ≥ 1

compound	categoryLabel
CC1=C2[C@H](C=C3CCC[C@@H](C)[C@]3(C)[C@@H]2O)OC1=O	lower level
CCCc1oc(=O)cc(OC)c1CO	lower level
C[C@H](O)[C@@H]1N[C@H]2N(C1=O)c1ccccc1C21CC2C(=O)NC1c1nc3ccccc3c(=O)n12 (stereo partly drawn)	upper level
COC(=O)C[C@@H]1C2(C)C(=O)[C@@H](CC3=C4CC(O)O[C@@H](c5ccoc5)[C@]4(C)CCC32)[C@H](O)C1(C)C (stereo partly drawn)	upper level
CO[C@H]1C[C@H](O[C@H]2[C@H](C)[C@@H](OC3O[C@H](C)C[C@H](N(C)C)[C@H]3O)[C@@H](C)C[C@]3(CO3)C(=O)[C@H](C)[C@@H](O)[C@@H](C)[C@@H](C)OC(=O)[C@@H]2C)O[C@@H](C)[C@@H]1O (stereo partly drawn)	upper level
COc1cc(OC)c2c(=O)c(OC)c(-c3ccccc3)oc2c1	lower level
Nc1ccc(Oc2ccccc2)cc1	middle level
CCC(=O)O[C@H](CC(=O)O)C[N+](C)(C)C	upper level
CC(Cc1ccc(O)c(O)c1)(NN)C(=O)O (stereo not drawn)	upper level
CO/N=C(/C(=O)NC1C(=O)N2C(C(=O)O)=C(COC(N)=O)CSC12)c1ccco1 (stereo not drawn)	middle level
CC1(C)S[C@@H]2[C@H](NC(=O)[C@H](C(=O)O)c3cccs3)C(=O)N2[C@H]1C(=O)O	middle level
COc1c(N2CC[C@@H](CN)C2)c(F)cc2c(=S)c(C(=O)O)cn(C3CC3)c12	upper level

====

assay: differential killing of epithelial or mesenchymal cells, primary screen, imaging, PC-3E GFP, TEM4-18 mCherry, co-culture (AID 1345086); conditions: imaging cell counts, measured here: mesenchymal TEM4-18 mCherry cell survival, at 1 µM;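 note: cells exposed to compound for 72 h before imaging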
measurementType: normalised cell number

compound	measurementType	valueObserved
CC(=O)Oc1c(C)cccc1C(=O)O	normalised cell number	1
O=c1[nH]cnc2c1ncn2C1O[C@H](CO)[C@@H](O)[C@H]1O (stereo not given in full)	normalised cell number	1.02
O=C1OCC[C@@H]1Oc1ccc(Oc2cnc3ccc(Cl)cc3n2)cc1	normalised cell number	1.01
COC(=O)C[C@@H]1C2(C)C(=O)[C@@H](CC3=C4CC(=O)O[C@@H](c5ccoc5)[C@]4(C)CCC32)[C@H](OC(C)=O)C1(C)C (stereo not given in full)	normalised cell number	1.02
CCC(CC)O[C@@H]1C=C(C(=O)OC)C[C@H](N)[C@H]1NC(C)=O	normalised cell number	1

====

system: R275C/beta2Delta; assay: modulators of BK channel variants, profiling panel, selectivity assay, cell-based, U2OS BacMam, thallium flux, beta subunits (AID 1259406); settings: at 30 µM;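 note: initial slope of Thallos dye fluorescence rise after thallium is added; log ratio against the mean of 0.3% DMSO vehicle wells on the same plate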
Activity calls are given as the source filed them.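 The calls were made as follows: active = thallium flux through the channel raised or lowered by more than 3 SD from vehicle-only wells, actives on both sides; inactive = the rest.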
measurementType: log fold change Tl+ flux

compound	measurementType	valueObserved
CN(CCO)CC(O)Cn1cnc2c1c(=O)n(C)c(=O)n2C (stereo not drawn) (tested in a mixture with another compound)	log fold change Tl+ flux	-0.03 (inactive)
CC(=O)C1(O)CCC2C3CC(C)C4=CC(=O)C=CC4(C)C3(F)C(O)CC21C (stereo not drawn)	log fold change Tl+ flux	-0.0161 (inactive)
O=C(O)c1cccc(CSc2cccs2)c1	log fold change Tl+ flux	0.018 (inactive)
CC(C)(C)NC(=O)NCCO	log fold change Tl+ flux	-0.014 (inactive)
O=[N+]([O-])c1ccc(N2CCSCC2)cc1O	log fold change Tl+ flux	-0.0453 (inactive)
CC1CC2C3CCC4=CC(=O)C=CC4(C)[C@@]3(Cl)C(O)CC2(C)C1(O)C(=O)CO (stereo partly drawn)	log fold change Tl+ flux	0.0411 (inactive)
COC(=O)c1cc(-c2nc(-c3ccc(Cl)cc3Cl)cs2)c(SC)s1	log fold change Tl+ flux	0.0331 (inactive)
Cn1ncc2ccccc2c1=O	log fold change Tl+ flux	0.0689 (inactive)
COC(=O)c1cnn(C(=O)Nc2c(C)cccc2C)c1C(OC)OC	log fold change Tl+ flux	-0.0443 (inactive)
CC(C)C[C@H](NC(=O)[C@@H](O)[C@H](N)Cc1ccccc1)C(=O)O	log fold change Tl+ flux	-0.0202 (inactive)
Cc1c(C(=O)Nc2ccc(N3CCOCC3)c(Cl)c2)cnn1-c1ccc(F)cc1	log fold change Tl+ flux	-0.0229 (inactive)
COC(=O)c1sc(-c2ccc(Cl)cc2)cc1NC(=O)c1ccc2nsnc2c1	log fold change Tl+ flux	-0.0231 (inactive)
COCCCNC(=O)C(C#N)=CN(C)C	log fold change Tl+ flux	-0.0395 (inactive)
COc1ccc(CCNC(=O)c2ccccc2NC(=O)c2ccccc2C)cc1OC	log fold change Tl+ flux	-0.31 (active)
CC(=O)OCC(=O)C1(O)C(C)CC2C3CCC4CC(=O)C=CC4(C)C3C(O)CC21C (stereo not drawn)	log fold change Tl+ flux	0.0375 (inactive)
O=C(NNC(=O)c1ccc2nonc2c1)c1cccc(C(F)(F)F)c1	log fold change Tl+ flux	0.036 (inactive)
O=S(=O)(Nc1ccccc1SCc1ccc2nonc2c1)c1cccs1	log fold change Tl+ flux	-0.00587 (inactive)
COC(=O)c1cncc(Br)c1	log fold change Tl+ flux	-0.0215 (inactive)
